Numbers sourced from paper PMC5540273.

Give measured %Inh for each item. Keep answers brief.
test system: INSRR; conditions: concentration: 1 μM, replicates: in singlicate; n = 1;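 also: KINOMEscan kinase panel screen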
Answers are plain numbers, in %.

Cc1c2ccc(N(C)c3ccnc(Nc4cccc(S(N)(=O)=O)c4)n3)cc2nn1Cc1ccccc1.Cl.Cl [GW787226] | 58

For every item in the list below, what is its measured %Inh?
1. O=c1cc(N2CCOCC2)nc2n(Cc3cccc(C(F)(F)F)c3)ccn12 [GSK2297543]
2. COc1ccc(CNC(=O)NC2CCN(c3ccnc(Nc4ccc(OC)cc4)n3)C2)cc1 (stereo not shown) [GSK1379727]
3. CC(C)(CN)c1nc(-c2ccc(Cl)c(O)c2)c(-c2ccncc2)[nH]1.O=C(O)C(F)(F)F [SB-477794]

0
0
0

---

system: RSK1(Kin.Dom.1-N-terminal); construct: gene RPS6KA1; conditions: concentration: 1 μM, replicates: in singlicate; n = 1
recorded-endpoint: %Inh (%)
Numbers only, in %.

Below, 6 molecules whose answers are already recorded.
CCn1cnc2c(N)ncnc21 | 7
O=C(Nc1cccc(-c2nn3ncccc3c2-c2ccnc(Nc3cccc(C(F)(F)F)c3)n2)c1)c1c(F)cccc1F | 97.4
O=c1cc(N2CCOCC2)nc2n(Cc3cccc(Cl)c3Cl)c(C3CC3)nn12 | 0
COc1ccc(COc2cc(-n3cnc4ccccc43)sc2C(N)=O)cc1 | 6
N#Cc1ccc(-c2cc(-c3c[nH]nc3-c3ccccn3)ccn2)cc1 | 13
O=C(NOCC1CC1)c1ccc(F)c(F)c1Nc1ccc(I)cc1Cl | 0

Note: attention shifts to another entry.
Please give measured %Inh of the following entry: `[2H]C([2H])(c1cccc(C(F)(F)F)c1C)n1ccn2c(=O)nc(N3CCOCC3)cc12`
5

---

system: EPHB3; conditions: concentration: 1 μM, replicates: in singlicate; n = 1
recorded-endpoint: %Inh (%)
Answers are plain numbers, in %.

Reference set (3 entries):
Fc1ccc(-c2ncn(CCCN3CCOCC3)c2-c2ccccn2)cc1 | 20
CCc1nc(-c2cccc(C)c2)c(-c2ccnc(NCc3ccccc3)c2)s1 | 0
Cc1cccc(-c2nc(-c3ccc(S(C)(=O)=O)cc3)sc2-c2ccncc2)c1 | 34

Answer for every listed entry: what is its %Inh? The entries follow.
1. O=c1cc(N2CCOCC2)nc2n(Cc3cccc(C(F)(F)F)c3)ccn12
2. O=C(NCCNc1ccnc(Nc2ccc(F)cc2)n1)c1cc2ccccc2s1
3. Cl.Nc1ncnc2occ(-c3ccc(NC(=O)Nc4cc(C(F)(F)F)ccc4F)cc3)c12
4. O=c1cc(N2CCOCC2)nc2n(Cc3cccc4ccccc34)ccn12

1: 3; 2: 12; 3: 94.7; 4: 11

Quick one: give me %Inh for each item below, same order please.
1. CN(C(=O)c1ccc(-c2cc(-c3c[nH]nc3-c3ccccn3)ccn2)cc1)C1CCOCC1
2. NS(=O)(=O)c1cccc(-c2ccc3nccc(-c4cccc(S(N)(=O)=O)c4)c3c2)c1

0
0

---

tested on: GRK3; construct: gene ADRBK2; details: concentration: 1 μM, replicates: in singlicate; n = 1
recorded-endpoint: %Inh (%)
Give bare numbers, in %.

Solved entries (count: 5):
Cl.Nc1ncnc2occ(-c3ccc(NC(=O)Nc4cc(C(F)(F)F)ccc4F)cc3)c12 | 36
Cc1nnc(-c2ccc3occ(-c4ccc(C(C)O)cc4)c3c2)o1 (stereo not drawn) | 12
O=C(NCCNc1ccnc(Nc2ccc(F)cc2)n1)Nc1ccccc1F | 23
CCCCCc1nc2c(N)ncnc2n1CCCCC | 6
CC(C)(C)n1cnc2c(N)ncnc21 | 24

Please give %Inh for each item listed below.
1. COc1cc2ncn(-c3cc(OCc4sccc4Cl)c(C(N)=O)s3)c2cc1OC
2. NS(=O)(=O)CCc1cccc(Nc2nccc(-c3c(-c4cccc(NC(=O)c5c(F)cccc5F)c4)nn4ccccc34)n2)c1
3. COc1ccc(S(=O)(=O)NC2CCN(c3cc(C)nc(Nc4cccc(C#N)c4)n3)CC2)cc1.O=C(O)C(F)(F)F
4. Fc1ccc(-c2nn3c(OCC(F)(F)F)cccc3c2-c2ccncc2)cc1
5. CC(C)Oc1ccc2c(-c3ccnc(Nc4ccc(N5CCN(C)CC5)cc4)n3)cnn2n1
6. COc1ccc(CNC(=O)NC2CCN(c3ccnc(Nc4ccc(OC)cc4)n3)C2)cc1 (stereo not drawn)
7. CN1c2ccc(CNc3ccc(F)cc3)cc2-c2c(cnn2C)S1(=O)=O

33
89
0
45
48
48
0

---

system: YANK1; construct: gene STK32A; settings: concentration: 1 μM, replicates: in singlicate; n = 1
recorded-endpoint: %Inh

Some solved cases for reference:
O=C(c1ccc(-c2cc(-c3c[nH]nc3-c3ccccn3)ccn2)cc1)N1CCOCC1 [GW812171] | 0%
COc1cc2c(cc1OCCN1CCN(C)CC1)ncc1c3ccc(C#N)cc3[nH]c21 | 0%
Cc1cccc(Cn2ccn3c(=O)cc(N4CCOCC4)nc23)c1 [GSK2297542] | 20%
NS(=O)(=O)c1cccc(-c2ccc3nccc(-c4cccc(S(N)(=O)=O)c4)c3c2)c1 [GW867253] | 0%

Please look at the items below and tell me %Inh for each one, in order.
1. COc1ccc(COc2cc(-n3cnc4ccccc43)sc2C(N)=O)cc1 [GSK1024304]
2. CN1c2ccc(CNc3ccc(F)cc3)cc2-c2c(cnn2C)S1(=O)=O
3. Cc1nnc(-c2ccc3occ(-c4ccc(C(C)O)cc4)c3c2)o1 (stereo not shown)
4. CC(C)Oc1ccc2c(-c3ccnc(Nc4ccc(N5CCN(C)CC5)cc4)n3)cnn2n1 [GW696155]
5. O=C(NOCC1CC1)c1ccc(F)c(F)c1Nc1ccc(I)cc1Cl
6. Cc1c(Cn2c(C)nn3c(=O)cc(N4CCOC(C)C4)nc23)cccc1C(F)(F)F (stereo not shown) [GSK2344444]
7. c1ccc(-c2n[nH]cc2-c2ccnc3ccccc23)nc1 [GW271431]
8. O=C(NCCNc1ccnc(Nc2ccc(F)cc2)n1)Nc1ccccc1F [GSK1379880]

1: 6%; 2: 0%; 3: 5%; 4: 0%; 5: 6%; 6: 0%; 7: 19%; 8: 2%

Send back YANK1 %Inh of COc1ccc(Nc2nccc(N3CCC(NC(=O)Nc4cccc(C(C)=O)c4)C3)n2)cc1 (stereo not shown) [GSK1379731] only.
0%

---

system: ERK2; construct: gene MAPK1; conditions: concentration: 1 μM, replicates: in singlicate; n = 1
recorded-endpoint: %Inh (%)
Give bare numbers, in %.

CN1c2ccc(NCc3ccc(F)cc3)cc2-c2c(cnn2C)S1(=O)=O | 0

Hi there! I need %Inh for each item below, if you can.
1. Nc1nc(-c2ccc3c(N)n[nH]c3c2)cc(N2CCCC2)n1 [GSK2227430]
2. Cl.Nc1ncnc2occ(-c3ccc(NC(=O)Nc4cc(C(F)(F)F)ccc4F)cc3)c12 [SB-707548]
3. CCc1nc(-c2cccc(C)c2)c(-c2ccnc(NCc3ccccc3)c2)s1
4. Fc1ccc(-c2ncn(CCCN3CCOCC3)c2-c2ccccn2)cc1 [SB-211742]
5. Fc1ccc(-c2nn3c(OCC(F)(F)F)cccc3c2-c2ccncc2)cc1 [GW514784]

[0, 0, 11, 5, 0]

Take each entry in turn and give its %Inh.
1. COc1ccc(Nc2ncc(C#N)c(Nc3ccccc3C(N)=O)n2)cc1N1CCN(C)CC1.Cl [GSK1558669]
2. COc1cc2c(cc1OC[C@@H](O)CO)ncc1c3ccc(C#N)cc3[nH]c21

0
15

Kindly give each listed record's %Inh.
1. NS(=O)(=O)c1cccc(-c2ccc3nccc(-c4cccc(S(N)(=O)=O)c4)c3c2)c1 [GW867253]
2. O=C1NC(=O)C(N2CCc3ccccc32)=C1c1cccc(Cl)c1 [SB-408010]

[0, 12]

Here are 5 molecules. What values of %Inh were reported for them?
1. Cc1ccc(NC(=O)c2ccnc(N3CCN(C)CC3)c2)cc1-c1ccc(C(=O)NCC2CC2)cc1 [GW775604]
2. Cl.Oc1cccc(Nc2ccnc3cc(-c4ccncc4)ccc23)c1 [GW494601]
3. N#Cc1ccc(-c2cc(-c3c[nH]nc3-c3ccccn3)ccn2)cc1 [GW693028]
4. COc1ccc(COc2cc(-n3cnc4ccccc43)sc2C(N)=O)cc1 [GSK1024304]
5. O=C(Nc1cccc(-c2nn3ncccc3c2-c2ccnc(Nc3cccc(C(F)(F)F)c3)n2)c1)c1c(F)cccc1F [GSK299495]

0
0
0
0
0

Would you mind listing %Inh for each of the following molecules?
1. O=C(c1ccc(-c2cc(-c3c[nH]nc3-c3ccccn3)ccn2)cc1)N1CCOCC1 [GW812171]
2. CSc1ccc(-c2cc3ncnc(SCC(=O)O)c3s2)cc1
3. Fc1ccc(-c2ncn(CCCN3CCOCC3)c2-c2cccnc2)cc1 [SB-211743]
4. Nc1nccc(-c2c(-c3ccc(F)cc3)ncn2C2CCN(CC(F)(F)F)CC2)n1 [SB-236560]
5. CC(=O)Nc1ccc(COc2ccc(Nc3ccnc4cc(-c5ccccn5)ccc34)cc2)cc1.Cl [GW440148]
6. Cc1cn2c(=O)cc(N3CCOCC3)nc2n1Cc1cccc(Cl)c1Cl [GSK2334006]
7. NCC(NC(=O)c1cc(-c2cn[nH]c2)c(-c2ccnc3[nH]ccc23)s1)c1ccccc1.O=C(O)C(F)(F)F.O=C(O)C(F)(F)F (centres unmarked) [GSK1325775]

0
19
8
0
0
13
0

Can you give me %Inh for all of these, one by one?
1. [2H]C([2H])(c1cccc(C(F)(F)F)c1C)n1ccn2c(=O)nc(N3CCOCC3)cc12 [GSK2336394]
2. CNc1ncnc2[nH]ncc12 [SKF-18355]
3. O=C1Cc2cc(Nc3nc(NCc4cccc(S(=O)(=O)C(F)(F)F)c4)ncc3C(F)(F)F)ccc2N1
4. COc1ccc(S(=O)(=O)NC2CCN(c3cc(C)nc(Nc4cccc(C#N)c4)n3)CC2)cc1.O=C(O)C(F)(F)F [GSK1653539]
5. Cc1cccc(-c2nc(-c3ccc(S(C)(=O)=O)cc3)sc2-c2ccncc2)c1
6. O=C(NCCNc1ccnc(Nc2ccc(F)cc2)n1)c1cc2ccccc2s1 [GSK1379874]
7. CCn1cnc2c(N)ncnc21 [GW345098]

0
0
9
0
29
0
19
